Target: Mu-type opioid receptor (Mus musculus, UniProt P42866)
Sequence (P42866 whole entry): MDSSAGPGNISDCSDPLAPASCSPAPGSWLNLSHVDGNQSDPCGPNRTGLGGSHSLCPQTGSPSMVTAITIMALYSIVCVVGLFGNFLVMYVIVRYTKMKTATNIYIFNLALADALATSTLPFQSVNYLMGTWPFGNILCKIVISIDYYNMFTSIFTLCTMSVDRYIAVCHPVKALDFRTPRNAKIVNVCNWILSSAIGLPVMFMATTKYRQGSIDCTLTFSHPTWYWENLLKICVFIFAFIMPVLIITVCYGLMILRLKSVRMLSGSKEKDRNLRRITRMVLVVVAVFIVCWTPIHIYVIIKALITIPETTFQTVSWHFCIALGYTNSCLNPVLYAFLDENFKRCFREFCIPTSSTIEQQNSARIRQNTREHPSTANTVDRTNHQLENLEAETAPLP
Test: Displacement of [125I]-DAMGO from mouse Flag-tagged mu-opioid receptor expressed in HEK293 cell membranes after 60 mins by gamma counting
pIC50: −log10 of the molar value. Non-standard residues stand in square brackets, D forms with d. Residues, ends and D or L forms follow the SMILES beside them. Phe(2-Ph) = N[C@@H](Cc1ccccc1-c1ccccc1)C(=O)O; Dmt = Cc1cc(O)cc(C)c1C[C@H](N)C(=O)O
Think of 9 as a floor: if pIC50 stands on it or above, it is true; beneath it, false.

{"columns": ["Compound", "Assigned category"],
 "data": [
  ["Cc1cc(O)cc(C)c1C[C@H](N)C(=O)N[C@H](C)C(=O)N[C@@H](Cc1ccccc1-c1ccccc1)C(=O)NCC(N)=O (H-[Dmt][dA][Phe(2-Ph)]G-NH2)", "true"],
  ["C=Cc1cccc(C[C@H](NC(=O)[C@@H](CCCNC(=N)N)NC(=O)[C@@H](N)Cc2c(C)cc(O)cc2C)C(=O)NCC(N)=O)c1", "true"],
  ["C=Cc1ccccc1C[C@H](NC(=O)[C@@H](CCCNC(=N)N)NC(=O)[C@@H](N)Cc1c(C)cc(O)cc1C)C(=O)NCC(N)=O", "true"],
  ["C=Cc1ccccc1C[C@H](NC(=O)[C@@H](C)NC(=O)[C@@H](N)Cc1c(C)cc(O)cc1C)C(=O)NCC(N)=O", "true"],
  ["Cc1cc(O)cc(C)c1C[C@H](N)C(=O)N[C@H](C)C(=O)N[C@@H](Cc1ccccc1-c1ccsc1)C(=O)NCC(N)=O", "false"],
  ["Cc1cc(O)cc(C)c1C[C@H](N)C(=O)N[C@H](CCCNC(=N)N)C(=O)N[C@@H](Cc1ccc(-c2ccsc2)cc1)C(=O)NCC(N)=O", "false"]
]}

* * *

Target: Mu-type opioid receptor (Mus musculus)
Assay: Displacement of [125I]-DAMGO from mouse Flag-tagged mu-opioid receptor expressed in HEK293 cell membranes after 60 mins by gamma counting
Rule: measured IC50 below 1 nM gets Yes; anything equal to or greater than 1 nM gets No.

{"columns": ["Chem smiles", "Assigned category"],
 "data": [
  ["Cc1cc(O)cc(C)c1C[C@H](N)C(=O)N[C@H](CCCNC(=N)N)C(=O)N[C@@H](Cc1ccccc1-c1ccsc1)C(=O)NCC(N)=O", "No"],
  ["Cc1cc(O)cc(C)c1C[C@H](N)C(=O)N[C@H](CCCNC(=N)N)C(=O)N[C@@H](Cc1cccc(-c2ccsc2)c1)C(=O)NCC(N)=O", "No"],
  ["CC(C)=Cc1ccccc1C[C@H](NC(=O)[C@@H](CCCNC(=N)N)NC(=O)[C@@H](N)Cc1c(C)cc(O)cc1C)C(=O)NCC(N)=O", "Yes"],
  ["C=Cc1ccc(C[C@H](NC(=O)[C@@H](CCCNC(=N)N)NC(=O)[C@@H](N)Cc2c(C)cc(O)cc2C)C(=O)NCC(N)=O)cc1", "No"],
  ["Cc1cc(O)cc(C)c1C[C@H](N)C(=O)N[C@H](CCCNC(=N)N)C(=O)N[C@@H](Cc1ccccc1-c1ccccc1)C(=O)NCC(N)=O", "Yes"]
]}
